# Tested on: Fibroblast
# measurement-protocol: Multiplex assay against human fibroblast
# Type: toxicity, cell-based
# details: 48 h, 1 µM, compound concentration 1 uM, replicate 1
experimental-readout: Population Mitotic Cells (%)
Report the value in % with no unit label.

Solved cases (5 shown):
compound: Cl.NC[C@@H]1O[C@H](C23CC4CC(CC(C4)C2)C3)Cc2c1ccc(O)c2O
assay-result: 12
--
compound: CN1C(=O)[C@@H](NC(=O)c2cc3ccccc3[nH]2)N=C(c2ccccc2)c2ccccc21 [DEVAZEPIDE]
assay-result: 46
--
compound: Cc1c(P(=S)(c2ccccc2)c2ccccc2)n2ccccc2[n+]1C/C=C/c1ccccc1.[Br-]
assay-result: 40
--
compound: CC(/C=C1\SC(=S)N(CCCC(=O)Nc2ccc(C(=O)O)c(O)c2)C1=O)=C\c1ccccc1
assay-result: 37
--
compound: Oc1cccc(-c2nc(N3CCOCC3)c3oc4ncccc4c3n2)c1
assay-result: 66

[Q] Output measured Population Mitotic Cells (%) for this item: N#CCNC(=O)c1ccc(-c2ccnc(Nc3ccc(N4CCOCC4)cc3)n2)cc1
[A] 55

[Q] Output measured Population Mitotic Cells (%) for this item: CCCCN(CC)c1nc(C)nc2c1c(C)cn2-c1c(C)cc(C)cc1C.Cl
[A] 50

[Q] Output measured Population Mitotic Cells (%) for this item: CCCc1cc(C)[nH]c(=O)c1CNC(=O)c1cc(-c2ccc(N3CCN(C(C)C)CC3)nc2)cc2c1cnn2C(C)C
[A] 33

[Q] Output measured Population Mitotic Cells (%) for this item: CN(c1cc(C(F)(F)F)nc(OCCC(=O)O)n1)c1cccc2c1CCC2
[A] 48
